# Experimental details: Aqueous solubility of the compound
# Type: physicochemical
# Condition details: buffer
Readout label: solubility
The reply should read as a number followed by its unit.

Param item = CC(=O)O[C@H]1C(=O)[C@@]2(C)[C@H]([C@H](OC(=O)c3ccccc3)[C@]3(O)C[C@H](OC(=O)[C@H](O)[C@@H](NC(=O)c4ccccc4)c4ccccc4)C(C)=C1C3(C)C)[C@]1(OC(C)=O)CO[C@@H]1C[C@@H]2O ; retrieve measured solubility.
4 µg/mL

----------
# Experimental details: Half life in Wistar rat plasma at 500 ug/ml measured over 24 hrs at 37 degC by UPLC/MS analysis
# Assay type: ADME, cell-free
Readout label: half-life at 500 ug/ml

Param item = H-LVRRFRRFFRRLRRCVLL-NH2 ; retrieve measured half-life at 500 ug/ml.
48 min
